Examples of compounds with documented RLM follow.
ASSAY_INFO: Microsomal stability assay, rat liver microsomes;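 also: rat liver microsomes (0.25 mg/mL) with about 1 µM compound plus 1 mM NADPH, pH 7.4, 37 °C for 30 min, parent left measured by LC-MS/MS against 0 min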
CONDITION_LABEL: rat liver microsomes
Note: unit µL/min/mg is implicit; provide only the numeric part.

Check out these entries, answers already filled in.
CC(=O)N[C@@H](Cc1cc(F)cc(-c2cncs2)c1)[C@H](O)CN[C@H]1CC2(CCC2)Oc2ncc(CC(C)(C)C)cc21 ... 48
CO[C@H](C)C(=O)N[C@@H](Cc1ccc2c(c1)OCO2)[C@H](O)CN[C@H]1CC2(CCC2)Oc2cnc(CC(C)C)cc21 ... 228
COC(OC)C(=O)N[C@@H](Cc1ccc(F)cc1)[C@H](O)CN[C@H]1CC2(CCC2)Oc2ncc(CC(C)(C)C)cc21 ... 375
CO[C@H](C)C(=O)N[C@@H](Cc1ccccc1)[C@H](O)CN[C@H]1CC2(CCC2)Oc2c(-c3cncn3C)cc(CC(C)C)cc21 ... 340
CC(=O)N[C@@H](Cc1cc(F)cc(-c2cscn2)c1)[C@H](O)CN[C@H]1CC2(CCC2)Oc2ncc(CC(C)(C)C)cc21 ... 134

Task: Item under review: `CC(=O)N[C@@H](Cc1cccc(-c2cncs2)c1)[C@H](O)CN[C@H]1CC2(CCC2)Oc2ncc(CC(C)(C)C)cc21` . Reported RLM?
Output: 120
